# measuredOn: Glucagon-like peptide 1 receptor (Homo sapiens)
# procedureText: qHTS of GLP-1 Receptor Inverse Agonists (Inhibition Mode); note: nearly all actives have a fitted effect of over 55% in size
# testParameters: HEK293 GLP-1R CRE-luciferase, luminescence, 24 h, GLP-1R form is constitutively active; series mostly up to 38.3 µM
Out of some 410,000 compounds screened, about 6,400 (1.6%) were called active. Inconclusive results (about 20%) are left out. Calls come from the whole dose curve; as a rule, active = well fitted inhibition curve with a large enough effect; inconclusive = small, poorly fitted or top-dose-only effect; inactive = no such curve, though single readings can be large or run the other way. This excerpt belongs to a sample that is enriched for actives.
// one of active, inactive, no free text

Incoming: Record lookup: outcome of this test for Cc1ccc(Nc2ccc3cc(S(=O)(=O)N4CCCCC4)ccc3n2)cc1F ?
Outgoing: active

Incoming: Record lookup: outcome of this test for Cc1cccc(C(=O)NC(=S)N(C)C2CCCCC2)c1 ?
Outgoing: inactive

Incoming: Record lookup: outcome of this test for CCC(=O)Nc1ccc(C(=O)N2CCN(C(=O)c3ccco3)CC2)cc1 ?
Outgoing: inactive
